ASSAY: in vivo
EXPERIMENTAL SETUP: male, NRG (NOD.Cg-Rag1tm1Mom Il2rgtm1Wjl/SzJ), mouse, total radioactivity, Tumour/muscle
MEASUREMENT KIND: tissue to tissue ratio at 4 h

Notebook: CCCC[C@H](NC(=O)CN1CCC(NC(=O)[C@H](CCCCNC(=O)CN2CCN(CC(=O)O)CCN(CC(=O)O)CCN(CC(=O)O)CC2)NC(=O)CNC(=O)CCCc2ccc(-c3ccc(C)cc3)cc2)CC1)C(=O)N[C@H]1CC(=O)NCCCC[C@@H](C(N)=O)N(C)C(=O)[C@H](Cc2c[nH]c3ccccc23)NC(=O)[C@H](CCCNC(=N)N)N(C)C(=O)[C@@H](Cc2ccccc2)NC(=O)[C@H](Cc2c[nH]cn2)NC1=O [^177Lu-labeled CCZ01158, metal not drawn] , tissue to tissue ratio at 4 h read as 23.6

* * *

ASSAY: in vivo
EXPERIMENTAL SETUP: male, NRG (NOD.Cg-Rag1tm1Mom Il2rgtm1Wjl/SzJ), mouse, total radioactivity, Tumour/blood
MEASUREMENT KIND: tissue to tissue ratio at 4 h
Quick one: just the number, no unit, thanks!

GET /value?item= CCCC[C@H](NC(=O)CN1CCC(NC(=O)[C@H](CCCCNC(=O)CN2CCN(CC(=O)O)CCN(CC(=O)O)CCN(CC(=O)O)CC2)NC(=O)CNC(=O)CCCc2ccc(-c3ccc(C)cc3)cc2)CC1)C(=O)N[C@H]1CC(=O)NCCCC[C@@H](C(N)=O)N(C)C(=O)[C@H](Cc2c[nH]c3ccccc23)NC(=O)[C@H](CCCNC(=N)N)N(C)C(=O)[C@@H](Cc2ccccc2)NC(=O)[C@H](Cc2c[nH]cn2)NC1=O [^177Lu-labeled CCZ01158, metal not drawn] &field=tissue to tissue ratio at 4 h returns 2.24

* * *

ASSAY: Biodistribution of 177Lu-labeled αMSH analogues in mice bearing B16F10 mouse melanoma
Format: in vivo, C57BL/6J mice
EXPERIMENTAL SETUP: mouse, brain, iv, total radioactivity; 4 h p.i., C57BL/6J mice, B16F10 melanoma; read-out: Biodistribution, Brain
The entries below are paired with their reported tissue uptake at 4 h.
Write the answer as a number in %ID/g, unit excluded.

{"COMPOUND": "CCCC[C@H](NC(=O)CN1CCC(NC(=O)[C@H](CCCCNC(=O)CN2CCN(CC(=O)O)CCN(CC(=O)O)CCN(CC(=O)O)CC2)NC(=O)[C@H](CCC(=O)O)NC(=O)CCCc2ccc(I)cc2)CC1)C(=O)N[C@H]1CC(=O)NCCCC[C@@H](C(N)=O)N(C)C(=O)[C@H](Cc2c[nH]c3ccccc23)N(C)C(=O)[C@H](CCCNC(=N)N)N(C)C(=O)[C@@H](Cc2ccccc2)NC(=O)[C@H](Cc2c[nH]cn2)N(C)C1=O [^177Lu-labeled CCZ01088, metal not drawn]", "MEASURE UNIT": "%ID/g", "tissue uptake at 4 h": 0.04}

Lookup result for CCCC[C@H](NC(=O)CN1CCC(NC(=O)CN2CCN(CC(=O)O)CCN(CC(=O)O)CCN(CC(=O)O)CC2)CC1)C(=O)N[C@H]1CC(=O)NCCCC[C@@H](C(N)=O)N(C)C(=O)[C@H](Cc2c[nH]c3ccccc23)NC(=O)[C@H](CCCNC(=N)N)N(C)C(=O)[C@@H](Cc2ccccc2)NC(=O)[C@H](Cc2c[nH]cn2)NC1=O [^177Lu-labeled CCZ01106, metal not drawn] ; measured tissue uptake at 4 h: 0.01
